Assignment: determine reported protein stability index for the given variants.
B1: TMEM192 (parent)
chain: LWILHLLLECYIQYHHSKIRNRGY

Variants of: B1
assay_name: protein stability index of a GFP-peptide fusion (GPS, HEK-293T) (PSI 1-6); higher = more stable;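 further: lentivirally expressed fusions sorted by FACS into six bins by GFP to DsRed ratio, PSI derived from sequencing read proportions per bin multiplied by bin number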
assay_context: c terminus: a fixed tail appended
Give bare numbers.

These recorded examples may help you get a feel for the data.
sequence_variant: R20K
readout_name: protein stability index
experimental_value: 1.97
//
sequence_variant: R22Y
readout_name: protein stability index
experimental_value: 1.98
//
sequence_variant: I12H
readout_name: protein stability index
experimental_value: 1.95
//
sequence_variant: Q13N
readout_name: protein stability index
experimental_value: 3.19
//
sequence_variant: W2E
readout_name: protein stability index
experimental_value: 1.73

Record protein stability index per entry; entries follow.
1. L6R
2. R22W
3. Y14L
4. L7Q
5. I3L

Key:
1.73
3.32
3.2
2.34
3.4

# map each variant to its protein stability index
1. I3R
2. R22N
3. E9L
4. K18H
5. Y11A

Key:
[1.74, 2.26, 1.7, 4.09, 2.47]

Where do these numbers come from? They come from the supplement of paper PMC10567573.
